Entry source: the Immune Epitope Database (IEDB)

biological target: HLA-A*68:01; test: IEDB peptide-MHC binding, purified MHC/competitive/radioactivity; filed as Kd, often an IC50 or EC50 that approximates it; bounds were set here for any values at or beyond the usual limits of such assays; details: source organism: Vaccinia virus WR
Reported Metric: log10 Kd (log10 of the value in nM)
Units before log transform: nM; reported quantity: Kd; transform: log10.

// query I would be grateful if you could share the reported log10 Kd for TAIKEVVMAY .
// result 2.50

Respectfully, I request log10 Kd for each entry included below.
1. DIETAIRAGY
2. ILAEYIRHR
3. VLFVKKMLPK

// result
3.09
1.18
3.37

Give measured log10 Kd for every item shown.
1. FLELKRGIY
2. IVTDLENRLK
3. ITPTIEDDK
4. DLIKKSDAK
5. SIPISELSR

// result
3.27
2.49
2.72
3.33
1.05

Batch: log10 Kd for all items listed.
1. CLEWLRAKR
2. ETLNEYKQLY
3. VADLSARNK
4. DIVNNFITK
5. ISIISIRPR

// result
[2.47, 2.52, 3.05, 1.94, 1.64]

* * *

target: HLA-A*24:02; test: IEDB peptide-MHC binding, purified MHC/competitive/radioactivity; filed as Kd, often an IC50 or EC50 that approximates it; bounds were set here for any values at or beyond the usual limits of such assays; settings: source organism: Dengue virus 4 Philippines/H241/1956
Reported Metric: pKd
One number for each entry, as −log10 of the molar value.

// query Item under review: HWVEITALI . Reported pKd?
// result 6.50

* * *

target: HLA-A*03:01; experiment: IEDB peptide-MHC binding, purified MHC/direct/fluorescence; filed as Kd, often an IC50 or EC50 that approximates it; bounds were set here for any values at or beyond the usual limits of such assays; conditions: source organism: Influenza A virus (A/chicken/Hunan/fg/2004(H5N1))
pKd: −log10 of the molar value.
Reported Metric: pKd

// query pKd lookup needed for DTVNRTHQY , thanks.
// result ≤ 4.70

* * *

target: HLA-A*03:01; assay: IEDB peptide-MHC binding, purified MHC/direct/fluorescence; filed as Kd, often an IC50 or EC50 that approximates it; bounds were set here for any values at or beyond the usual limits of such assays; conditions: source organism: Vibrio parahaemolyticus AQ3810
pKd: −log10 of the molar value.
Reported Metric: pKd

// query May I ask what pKd has been recorded for EPFLVQFWI ?
// result ≤ 4.70

* * *

biological target: HLA-A*02:03; assay: IEDB peptide-MHC binding, purified MHC/direct/fluorescence; filed as Kd, often an IC50 or EC50 that approximates it; bounds were set here for any values at or beyond the usual limits of such assays; settings: source organism: Limestone Canyon virus
pKd: −log10 of the molar value.
Reported Metric: pKd

// query Returns the measured pKd for the input sequence. Input: YRTLGVFRY
// result ≤ 4.70

* * *

molecular target: HLA-C*06:02; experiment: IEDB peptide-MHC binding, purified MHC/competitive/fluorescence; filed as Kd, often an IC50 or EC50 that approximates it; bounds were set here for any values at or beyond the usual limits of such assays; settings: source organism: Yersinia pseudotuberculosis IP 31758
Reported Metric: Kd (nM)
Give bare numbers, in nM.

// query Need Kd, item FQWWRSHPL
// result 837

* * *

molecular target: HLA-C*15:02; test: IEDB peptide-MHC binding, purified MHC/direct/fluorescence; filed as Kd, often an IC50 or EC50 that approximates it; bounds were set here for any values at or beyond the usual limits of such assays; details: source organism: Bacillus anthracis str. A2012
pKd: −log10 of the molar value.
Reported Metric: pKd

// query Name the reported pKd value associated with the sequence SMFDSWGPF
// result ≤ 4.70

* * *

target: HLA-A*03:01; experiment: IEDB peptide-MHC binding, purified MHC/direct/fluorescence; filed as Kd, often an IC50 or EC50 that approximates it; bounds were set here for any values at or beyond the usual limits of such assays; details: source organism: Orthohantavirus dobravaense
Reported Metric: Kd

// query Would you mind telling me what Kd value was observed for VTYDYIIPK ?
// result 50.8 nM

* * *

biological target: HLA-A*01:01; experiment: IEDB peptide-MHC binding, purified MHC/competitive/radioactivity; filed as Kd, often an IC50 or EC50 that approximates it; bounds were set here for any values at or beyond the usual limits of such assays; details: source organism: Lymphocytic choriomeningitis virus (strain Armstrong)
Reported Metric: Kd (µM)
One number for each entry, in µM.

// query What value of Kd has been recorded for this entry: KLSHSDYEY
// result 2.58

* * *

target: HLA-A*30:01; experiment: IEDB peptide-MHC binding, purified MHC/competitive/radioactivity; filed as Kd, often an IC50 or EC50 that approximates it; bounds were set here for any values at or beyond the usual limits of such assays; details: source organism: Mammarenavirus brazilense
Reported Metric: pKd
Answers are plain numbers, as −log10 of the molar value.

// query # value lookup — system HLA-A*30:01, readout pKd, item STYYVHENK
// result 5.48

* * *

target: HLA-A*03:01; assay: IEDB peptide-MHC binding, purified MHC/direct/fluorescence; filed as Kd, often an IC50 or EC50 that approximates it; bounds were set here for any values at or beyond the usual limits of such assays; details: source organism: Escherichia coli
Reported Metric: Kd

// query Tell me the measured Kd of LPYTFMLRK , please.
// result ≥ 20 µM

* * *

target: HLA-A*11:01; assay: IEDB peptide-MHC binding, purified MHC/direct/fluorescence; filed as Kd, often an IC50 or EC50 that approximates it; bounds were set here for any values at or beyond the usual limits of such assays; conditions: source organism: Mycobacterium tuberculosis
Please provide measured Kd for the entries that follow.

// query I am curious: what Kd value has been reported for RPKPDYSAM ?
// result ≥ 20 µM

// query Ok, now RPRVAQLTF
// result ≥ 20 µM

// query Entry to check: VVYIILAPK
// result 0.0274 µM

Consider the record given below.
// query State the recorded Kd for this entry: KPKLARGEL
// result ≥ 20 µM

* * *

target: HLA-A*02:01; experiment: IEDB peptide-MHC binding, purified MHC/competitive/fluorescence; filed as Kd, often an IC50 or EC50 that approximates it; bounds were set here for any values at or beyond the usual limits of such assays; settings: source organism: Yersinia bercovieri ATCC 43970
Reported Metric: Kd (nM)
One number for each entry, in nM.

// query Quick one: Kd for WQMFMKVTV ?
// result 15.6

* * *

biological target: HLA-A*11:01; test: IEDB peptide-MHC binding, purified MHC/competitive/fluorescence; filed as Kd, often an IC50 or EC50 that approximates it; bounds were set here for any values at or beyond the usual limits of such assays; conditions: source organism: Yersinia pestis KIM10+
Reported Metric: Kd

// query Which measured Kd value corresponds to SRWAISHWL ?
// result ≥ 20 µM

* * *

target: HLA-B*08:01; assay: IEDB peptide-MHC binding, purified MHC/competitive/fluorescence; filed as Kd, often an IC50 or EC50 that approximates it; bounds were set here for any values at or beyond the usual limits of such assays; settings: source organism: Bacillus anthracis str. A0488
Reported Metric: Kd

// query I would be grateful if you could share the reported Kd for AANMYIYPL .
// result 1.1 µM

* * *

molecular target: HLA-A*02:02; assay: IEDB peptide-MHC binding, purified MHC/competitive/radioactivity; filed as Kd, often an IC50 or EC50 that approximates it; bounds were set here for any values at or beyond the usual limits of such assays; details: source organism: Mammarenavirus juninense
Reported Metric: pKd
One number for each entry, as −log10 of the molar value.

// query Which pKd is reported with HLA-A*02:02 for this entry: AMPGVLSYV ?
// result 8.37

* * *

biological target: HLA-B*15:01; test: IEDB peptide-MHC binding, purified MHC/direct/fluorescence; filed as Kd, often an IC50 or EC50 that approximates it; bounds were set here for any values at or beyond the usual limits of such assays; conditions: source organism: Influenza A virus (A/chicken/Hunan/fg/2004(H5N1))
pKd: −log10 of the molar value.
Reported Metric: pKd

// query Query the reported pKd for HLA-B*15:01; item: DTVNRTHQY
// result ≤ 4.70

* * *

target: HLA-B*51:01; assay: IEDB peptide-MHC binding, purified MHC/competitive/fluorescence; filed as Kd, often an IC50 or EC50 that approximates it; bounds were set here for any values at or beyond the usual limits of such assays; conditions: source organism: Araucaria virus
Reported Metric: Kd

// query Param item = AQKLATKPV ; retrieve measured Kd.
// result ≥ 20 µM

* * *

biological target: HLA-A*32:01; assay: IEDB peptide-MHC binding, purified MHC/competitive/radioactivity; filed as Kd, often an IC50 or EC50 that approximates it; bounds were set here for any values at or beyond the usual limits of such assays; settings: source organism: Dengue virus 4 Dominica/814669/1981
Reported Metric: pKd
One number for each entry, as −log10 of the molar value.

// query Could you share which pKd value was measured for KMFESTYRG ?
// result 6.04
